System: COLO 205 colon
assay_name: NCI tumour cell line growth inhibition, 48 h
Please provide measured TGI for the entries that follow.

Inquiry: Form: Entry = COC(=O)CCC(C)[C@H]1CCC2C3C(C[C@H](OC(C)=O)[C@@]21C)[C@@]1(C)CCC2(C[C@H]1C[C@H]3OC(C)=O)OOC1(CCC(C(C)(C)C)CC1)OO2 (stereo partly specified) | System = COLO 205 colon | TGI = ____
Reply text: > 100 µM

Inquiry: Form: Entry = NC(N)=NS(=O)(=O)c1ccc(NC(=O)c2cccc3cc4ccccc4nc23)cc1 | System = COLO 205 colon | TGI = ____
Reply text: > 100 µM

Inquiry: Form: Entry = COc1ccc(NC=O)c(C(=O)CCNC(C)=O)c1 | System = COLO 205 colon | TGI = ____
Reply text: > 100 µM

Inquiry: Form: Entry = Cc1ccc2cc3cccc(C(=O)NCCN(C)C)c3nc2c1 | System = COLO 205 colon | TGI = ____
Reply text: 2.51 µM

Inquiry: Form: Entry = COc1nc(=O)n(C2CC(F)C(CO)O2)cc1C (stereo unspecified) | System = COLO 205 colon | TGI = ____
Reply text: > 100 µM

Inquiry: Form: Entry = N=c1c2ccccc2nc2oc3ccccc3n12 | System = COLO 205 colon | TGI = ____
Reply text: > 100 µM

Inquiry: Form: Entry = Nc1nnnn1NC(=O)NCCCl | System = COLO 205 colon | TGI = ____
Reply text: > 10 µM

Inquiry: Form: Entry = Cc1cc(C)nc(NS(=O)(=O)c2ccc(Nc3c4ccccc4nc4c(C(=O)N5CCN(CCO)CC5)ccc(Cl)c34)cc2)n1 | System = COLO 205 colon | TGI = ____
Reply text: > 100 µM

Inquiry: Form: Entry = C/C1=C\CC[C@@]2(C)O[C@@H]2C[C@@H]2[C@H](C/C(C)=C/CC1)OC(=O)C21CC1 | System = COLO 205 colon | TGI = ____
Reply text: > 100 µM

Inquiry: Form: Entry = Nc1c(C(=O)c2cccc(-c3ccncc3)c2)cnn1-c1ccc(F)cc1 | System = COLO 205 colon | TGI = ____
Reply text: > 25 µM

Inquiry: Form: Entry = CCOP(=O)(OCC)/C(C#N)=C/c1nccn1C | System = COLO 205 colon | TGI = ____
Reply text: > 100 µM

Inquiry: Form: Entry = C=CCN=C1N=C(C)C(C(=O)OCC)S1 (stereo unspecified) | System = COLO 205 colon | TGI = ____
Reply text: > 100 µM

Inquiry: Form: Entry = CC12C=C[C@]3(CC[C@@H]4[C@@](C)(CO)CCC[C@]4(C)C3CC1)C2 (stereo partly specified) | System = COLO 205 colon | TGI = ____
Reply text: 30.6 µM

Inquiry: Form: Entry = CC1(C)CC(/C=C2/OC(=O)c3ccccc32)=C(C(N)=O)C(=O)O1 | System = COLO 205 colon | TGI = ____
Reply text: > 100 µM

Inquiry: Form: Entry = Nc1nc2c(ncn2C2C=CC(COS(N)(=O)=O)C2)c(=O)[nH]1 (stereo unspecified) | System = COLO 205 colon | TGI = ____
Reply text: > 100 µM

Inquiry: Form: Entry = Clc1ccc(Cc2nc3cc(Cl)ccc3o2)cc1 | System = COLO 205 colon | TGI = ____
Reply text: 87.4 µM

Inquiry: Form: Entry = N=C(N)CCNC(=O)C1CCC(N)=N1 (stereo unspecified) | System = COLO 205 colon | TGI = ____
Reply text: > 59 µM

Inquiry: Form: Entry = O=C1CCN(CCC(F)(F)C(F)(F)C(F)(F)C(F)(F)C(F)(F)C(F)(F)F)C(=S)N1CCC(F)(F)C(F)(F)C(F)(F)C(F)(F)C(F)(F)C(F)(F)F | System = COLO 205 colon | TGI = ____
Reply text: > 100 µM

Inquiry: Form: Entry = COC(=O)[C@@H](C)C[C@H](Cc1ccccc1)NC(=O)c1nc([C@@H](C[C@H](C(C)C)N(C)C(=O)[C@@H](NC(=O)[C@H]2CCCCN2C)C(C)C)OC(C)=O)sc1C(C)C | System = COLO 205 colon | TGI = ____
Reply text: 0.0401 µM

Inquiry: Form: Entry = CC(C)=C[C@@H]1C[C@H](C)[C@H]2CC[C@H](C)c3c(O)c(OC4OCC(O)C(O)C4O)c(C)c1c32 (stereo partly specified) | System = COLO 205 colon | TGI = ____
Reply text: 29.7 µM

Inquiry: Form: Entry = COc1cccc(-n2ncc3c(N/N=C/c4cccc(F)c4)ncnc32)c1 | System = COLO 205 colon | TGI = ____
Reply text: > 22 µM
